Could you please report measured mass density for the items listed next?
Settings: 343.15 K; 2000 kPa; Liquid
One number for each entry, in kg/m3.

Take a look at these entries with their results.
compound: CCCCn1cc[n+](C)c1.F[B-](F)(F)F [1-butyl-3-methylimidazolium tetrafluoroborate]
mass density, kg/m3: 1169.3
--
compound: CCCCn1cc[n+](C)c1C.F[P-](F)(F)(F)(F)F [1-butyl-2,3-dimethylimidazolium hexafluorophosphate]
mass density, kg/m3: 1314.6
--
compound: CCCCCCCC[n+]1ccn(C)c1.F[P-](F)(F)(F)(F)F [1-octyl-3-methylimidazolium hexafluorophosphate]
mass density, kg/m3: 1202.3
--
compound: CCCCCCCC[n+]1ccn(C)c1.F[B-](F)(F)F [1-methyl-3-octylimidazolium tetrafluoroborate]
mass density, kg/m3: 1072.5
--
compound: CCCCn1cc[n+](C)c1.O=S(=O)([O-])C(F)(F)F [1-butyl-3-methylimidazolium trifluoromethanesulfonate]
mass density, kg/m3: 1263.8

Query :: # input compound: CCCCCCn1cc[n+](C)c1.F[P-](F)(F)(F)(F)F [1-hexyl-3-methylimidazolium hexafluorophosphate] ; wanted: its mass density
Result :: 1257.3
